MEASUREMENT_TARGET: T1, human CD3ε/δ-Fc fusion protein (soluble recombinant CD3ε/δ complex) (human, UniProt P04234 22-105)
T1 construct: also called huCD3ε/δ; huCD3; not shown: hinge, CH2, CH3 of human IgG with tag
T1 sequence (chain, as listed by the source mutant, chain 1 of 2): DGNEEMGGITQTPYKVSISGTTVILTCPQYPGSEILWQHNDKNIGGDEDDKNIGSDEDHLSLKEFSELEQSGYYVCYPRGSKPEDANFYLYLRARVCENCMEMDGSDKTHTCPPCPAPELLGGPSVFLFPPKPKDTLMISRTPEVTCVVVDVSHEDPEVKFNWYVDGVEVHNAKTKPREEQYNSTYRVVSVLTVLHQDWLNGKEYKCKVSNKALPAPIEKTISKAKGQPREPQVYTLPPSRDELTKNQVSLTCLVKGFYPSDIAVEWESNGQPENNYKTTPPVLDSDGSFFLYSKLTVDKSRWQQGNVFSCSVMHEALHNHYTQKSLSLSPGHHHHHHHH
T1 sequence (P04234 22-105, stated change not applied, chain 2 of 2): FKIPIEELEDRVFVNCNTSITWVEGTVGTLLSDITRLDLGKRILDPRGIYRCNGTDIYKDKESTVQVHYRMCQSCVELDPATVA
ASSAY_SUMMARY: SPR, CD3-Fc captured, Fab 100 nM
PROPERTY_NAME: RU of Fab binding at 100 nM (RU)
Field format: number, assumed RU, no unit text.

18F5-H10 Fab (Fab, V domains shown, also called BDX-18F5-H10) VH: EVQVVETGGSLVQPGKSLKLTCATSGFTFTNAWMHWVRRSPEKQLEWVAQIKDKSNNYATYYAESVKGRFTISRDDSKSSIYLQMNSLKEEDTAIYYCRYVHYRFAYALDAWGRGTSVSVSS VL: DVLMTQTPVSLSVSLGGQVSISCRSSQSLVHTNGNTYLSWYLQKPGQSPQLLIYKVSNRLSGISDRFSGSGSGTDFTLKISRVEPDDLGVYYCGQGTHYPFTFGAGTKLELKR :: 13

Form field: reported RU of Fab binding at 100 nM of 13H2-C2 Fab (Fab, V domains shown, also called 13H2-C3) VH: EEELVETGGSLVQPGKSLKLTCATSGFTFSNAWMHWVRQSPDKQLEWVAQIKAKSNNYATYYAESVKGRFTISRDDSKSSVYLQMNNLKEEDTAIYYCRYVHYGLAPMDAWGQGTSVTVSS VL: DVVMTQTPVSLSVSLGGQVSISCRSSQSLVHNNGNTYLSWYLQKAGQSPQLLIYKVSNRFSGISDRFSGSGSGTDFILKISRVEPDDLGVFYCGQGTQYPFTFGAGTKLELK
9
